assay_protocol: Phase II clinical trial: pharmacokinetics of plasma Rabeximod (PK subgroup)
Assay type: in vivo, human
condition_summary: human, plasma, po, 37.5 mg, Week 12; 37.5 mg once daily; RA patients, oral, with methotrexate; read-out: AUC0-τ, Median
reported_metric: AUC
Please append the unit to your numeric answer.

In: So what does the record say about AUC for Cc1cc2nc3c4cc(Cl)ccc4n(CC(=O)NCCN(C)C)c3nc2cc1C ?
Out: 4540 ng·h/mL

###

assay_protocol: Phase II clinical trial: pharmacokinetics of plasma Rabeximod (PK subgroup)
Type: in vivo, human
condition_summary: human, plasma, po, 37.5 mg, Week 12; 37.5 mg once daily; RA patients, oral, with methotrexate; read-out: Tmax, Median
reported_metric: Tmax (h)
Please give a number only; it is taken to be in h.

In: So what does the record say about Tmax for Cc1cc2nc3c4cc(Cl)ccc4n(CC(=O)NCCN(C)C)c3nc2cc1C ?
Out: 3.99

###

assay_protocol: Phase II clinical trial: pharmacokinetics of plasma Rabeximod (PK subgroup)
Assay type: in vivo, human
condition_summary: human, plasma, po, 15 mg, Week 12; 15 mg once daily; RA patients, oral, with methotrexate; read-out: AUC0-τ, Geometric mean
reported_metric: AUC (ng·h/mL)
Please give a number only; it is taken to be in ng·h/mL.

In: So what does the record say about AUC for Cc1cc2nc3c4cc(Cl)ccc4n(CC(=O)NCCN(C)C)c3nc2cc1C ?
Out: 1530

###

assay_protocol: Phase II clinical trial: pharmacokinetics of plasma Rabeximod (PK subgroup)
Format: in vivo, human
condition_summary: human, plasma, oral, 37.5 mg, single administration at 6.25, 15 and 37.5 mg, across all dose levels, with methotrexate; read-out: Tmax (median estimates)
reported_metric: Tmax

In: So what does the record say about Tmax for Cc1cc2nc3c4cc(Cl)ccc4n(CC(=O)NCCN(C)C)c3nc2cc1C ?
Out: 5 to 8 h

###

assay_protocol: Phase II clinical trial: pharmacokinetics of plasma Rabeximod (PK subgroup)
Format: in vivo, human
condition_summary: human, plasma, po, 15 mg, Week 12; 15 mg once daily; RA patients, oral, with methotrexate; read-out: T1/2 (apparent terminal half-life), Median (converted)
reported_metric: half-life (h)
Please give a number only; it is taken to be in h.

In: So what does the record say about half-life for Cc1cc2nc3c4cc(Cl)ccc4n(CC(=O)NCCN(C)C)c3nc2cc1C ?
Out: 77.6

###

assay_protocol: Phase II clinical trial: pharmacokinetics of plasma Rabeximod (PK subgroup)
Format: in vivo, human
condition_summary: human, plasma, po, 6.35 mg, Day 1; 6.35 mg; RA patients, oral, with methotrexate; read-out: Cmax, Median
reported_metric: Cmax (ng/mL)
Please give a number only; it is taken to be in ng/mL.

In: So what does the record say about Cmax for Cc1cc2nc3c4cc(Cl)ccc4n(CC(=O)NCCN(C)C)c3nc2cc1C ?
Out: 7.05

###

assay_protocol: Phase II clinical trial: pharmacokinetics of plasma Rabeximod (PK subgroup)
Type: in vivo, human
condition_summary: human, plasma, po, 15 mg, Week 12; 15 mg once daily; RA patients, oral, with methotrexate; read-out: T1/2 (apparent terminal half-life), Geometric mean (converted)
reported_metric: half-life
Please append the unit to your numeric answer.

In: So what does the record say about half-life for Cc1cc2nc3c4cc(Cl)ccc4n(CC(=O)NCCN(C)C)c3nc2cc1C ?
Out: 77.1 h

Each recorded value in this set is attributed to patent US20220133717A1.
